subject_of_test: DAT (Homo sapiens, UniProt Q01959)
Sequence (Q01959 whole entry): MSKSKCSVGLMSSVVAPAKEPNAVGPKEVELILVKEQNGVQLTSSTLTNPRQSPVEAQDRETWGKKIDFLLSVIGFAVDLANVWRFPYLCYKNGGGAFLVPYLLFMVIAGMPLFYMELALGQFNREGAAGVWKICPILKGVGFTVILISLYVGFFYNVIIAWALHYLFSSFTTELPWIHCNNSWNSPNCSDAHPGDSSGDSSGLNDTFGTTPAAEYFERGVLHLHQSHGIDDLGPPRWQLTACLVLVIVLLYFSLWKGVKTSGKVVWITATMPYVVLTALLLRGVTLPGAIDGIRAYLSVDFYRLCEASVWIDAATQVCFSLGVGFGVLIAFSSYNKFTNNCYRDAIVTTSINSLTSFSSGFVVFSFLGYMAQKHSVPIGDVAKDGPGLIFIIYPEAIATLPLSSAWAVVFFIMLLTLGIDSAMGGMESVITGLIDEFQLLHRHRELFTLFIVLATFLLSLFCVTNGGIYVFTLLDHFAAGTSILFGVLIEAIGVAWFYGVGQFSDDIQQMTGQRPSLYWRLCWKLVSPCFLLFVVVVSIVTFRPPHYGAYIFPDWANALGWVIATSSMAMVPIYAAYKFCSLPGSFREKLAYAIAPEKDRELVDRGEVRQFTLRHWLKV
experiment_notes: Stereoselective uptake into DAT-overexpressing HEK293 cells;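 note: intracellular accumulation measured by chiral HPLC-MS/MS in stably transfected HEK293 cells, normalized to total protein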
assay_conditions: DAT; ratio between enantiomers, given as for (S) or for 2
observable: Stereoselectivity Vmax (fold)
The reply should contain only the number, in fold.

Example entries begin here.
Q) Tell us which Stereoselectivity Vmax value is on record for NC[C@@H](O)c1ccccc1 [(S)-Bisnorephedrine]
A) 1.17

Q) Tell us which Stereoselectivity Vmax value is on record for NCC(O)c1cccc(O)c1 (single isomer, unassigned) [Norphenylephrine-1, Norphenylephrine]
A) 1.55

Q) Tell us which Stereoselectivity Vmax value is on record for NCC(O)c1cccc(O)c1 (single isomer, unassigned) [Norphenylephrine-2, Norphenylephrine]
A) 1.55

Now for another entry.
Q) Tell us which Stereoselectivity Vmax value is on record for NC[C@H](O)c1ccccc1 [(R)-Bisnorephedrine]
A) 1.17

Values from paper PMC9599461
